Provenance of the data: PubChem BioAssay (NCI)

Assay: NCI Yeast Anticancer Drug Screen. Data for the sgs1 mgt1 strain (AID 161);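 note: 0% = growth of cultures given vehicle only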
Conditions: S. cerevisiae sgs1 mgt1 strain, at 5.0 µM (retest, dose inferred, filed as 0.5)
Compounds without any hit were thinned out: in the full panel of roughly 79,000, 15% have a hit. Activity calls are given as the source filed them. Cut-off read from the data, not from the text of the source: active = growth inhibition above about 70%; inactive = the rest.
Outcome codes: 1 for active, -1 for inactive

CCCCCCCC[As](C)(=O)O | -1
CC(=O)Nc1ccc([As](O[As](c2ccc(NC(C)=O)cc2)c2ccc([N+](=O)[O-])cc2)c2ccc([N+](=O)[O-])cc2)cc1 (stereo not given) | 1
COC1OC(OC)[CH]([Hg][Cl])C1OC (stereo not given) | 1
COC1(O[C@H]2CC[C@H]3[C@@H]4CCC5=CC(=O)CC[C@]5(C)[C@H]4CC[C@]23C)CCCCC1 | -1
ClCc1ccncc1 | -1
N#CN(Cc1ccccc1)C(c1ccccc1)(c1ccccc1)c1ccccc1.[I][Sn]([c]1ccccc1)([c]1ccccc1)[c]1ccccc1 | 1
C#CC(O)(CC)CC | -1
CC(C)CCC(=O)OC1CCC2(C)C(=CCC3C2CCC2(C)C(O)CCC32)C1 (stereo not given) | -1
CCC[CH2][Sn]1([CH2]CCC)[O]CC(Cc2ccccc2)[O]1 (stereo not given) | -1
CC1=C[C@H]2O[C@H]3C[C@H]4OC(=O)/C=C\C=C\C(=O)OCC[C@@H](C)C(O)C(=O)OC[C@@]2(CC1)[C@@]4(C)[C@]31CO1 (stereo not given in full) | 1

----------
Assay: NCI Yeast Anticancer Drug Screen. Data for the cln2 rad14 strain (AID 165);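 note: 0% = growth equal to vehicle treated cultures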
Details: S. cerevisiae cln2 rad14 strain, at 50.0 µM (retest, dose inferred, filed as 5.0), hits give high values
Method: Growth inhibition of yeast strains with defined genetic alterations is measured as a screen for potential anti-cancer activity. Selected strains with alterations in DNA damage repair or cell cycle control were exposed to compounds and growth inhibition was measured relative to vehicle treated controls. The strain used in this assay is cln2 rad14
The panel holds about 79,000 compounds, 15% with a hit somewhere; the sample as a whole holds those more often.
parameter: growth inhibition (%)

CC(=O)Nc1ccc([As](O[As](c2ccc(NC(C)=O)cc2)c2ccc([N+](=O)[O-])cc2)c2ccc([N+](=O)[O-])cc2)cc1 (stereo not drawn) | 99
C/C=C(\C)C(=O)OC1CC(C)(C)CC2C3=CCC4C5(C)CCC(=O)C(C)(C)C5CCC4(C)C3(C)CCC12C(=O)O (stereo not drawn) (tested in a mixture with another compound) | 88
CN1CCN(c2ccc3nc(-c4ccc5nc(CCCc6ccc(N(CCCl)CCCl)cc6)[nH]c5c4)[nH]c3c2)CC1 | 99
Oc1c(I)cc(I)cc1I | 94
C(=P(c1ccccc1)(c1ccccc1)c1ccccc1)[P+](c1ccccc1)(c1ccccc1)c1ccccc1.[Cl][Fe]([Cl])([Cl])[Br] | 99
O=[As]c1ccccc1O (stereo not drawn) | 98
O=C([O][Hg][CH2]C1COC([CH2][Hg][O]C(=O)c2ccccc2)CO1)c1ccccc1 (stereo not drawn) | 98
ClC1=C(Cl)C2(Cl)C(Cl)CC1(Cl)C2(Cl)Cl (stereo not drawn) | -9

----------
Assay: NCI Yeast Anticancer Drug Screen. Data for the cln2 rad14 strain (AID 165);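 note: 0% = growth equal to vehicle treated cultures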
Conditions: S. cerevisiae cln2 rad14 strain, at 50.0 µM
Compounds without any hit were thinned out: in the full panel of roughly 79,000, 15% have a hit. Activity calls are given as the source filed them. Cut-off read from the data, not from the text of the source: active = growth inhibition above about 70%; inactive = the rest.
Labels: true (1) = active, false (0) = inactive

CCCNC(Cc1ccccc1)c1ccccc1 (stereo not drawn) | false (0)
Sc1ccccc1.[Ag] | true (1)
CCOC(=O)C(C)Br (stereo not drawn) | false (0)
ClCCN(CCCl)c1ccc(-c2csc(Cc3ccccc3)n2)cc1 | false (0)
O=NNc1nc2ccccc2[nH]1 | false (0)
COC(=O)C(N)Cc1ccc(OC)c(N(CCCl)CCCl)c1 (stereo not drawn) | false (0)
C=C(C)CCP(=S)(OCC)OCC | false (0)
CCN(CCCl)c1cccc(NC(=O)c2ccc(C(=O)Nc3cccc(CN(C)C)c3)cc2)c1 | false (0)
CCC(=O)C(c1ccccc1)(c1ccccc1)C(C)CN1CCCCCCC1 (stereo not drawn) | false (0)
O=S(=O)(O)O.[W] | false (0)
O=[N+]([O-])O.[NH-]C1CCCCC1[NH-].[NH-]C1CCCCC1[NH-].[OH-].[OH-].[Pt+4].[Pt+4] (stereo not drawn) | false (0)
CN(Cc1ccccc1)CC(O)c1ccccc1Cl (stereo not drawn) | false (0)
NC(=O)Cc1nn[nH]n1 | false (0)
